Hi there, I'd appreciate the recorded PI (relative stability), 25% TIDE 2X with DTPA for every entry that follows.
Assay: Stability assay in 25% TIDE 2X detergent with DTPA (residual Abz-AGLA-Nba protease activity)
Assay type: physicochemical
Conditions: 60 min at 32°C; variant residual AGLA activity divided by wild-type residual activity
Output spec: single numeric token, no unit.

Memo: I156T: single-substitution thermolysin variant (SEQ ID NO:3 numbering) (protein, listed as Geobacillus caldoproteolyticus) ITGTSTVGVGRGVLGDQKNINTTYSTYYYLQDNTRGNGIFTYDAKYRTTLPGSLWADADNQFFASYDAPAVDAHYYAGVTYDYYKNVHNRLSYDGNNAAIRSSVHYSQGYNNAFWNGSQMVYGDGDGQTFIPLSGGIDVVAHELTHAVTDYTAGLTYQNESGAINEAISDIFGTLVEFYANKNPDWEIGEDVYTPGISGDSLRSMSDPAKYGDPDHYSKRYTGTQDNGGVHINSGIINKAAYLISQGGTHYGVSVVGIGRDKLGKIFYRALTQYLTPTSNFSQLRAAAVQSATDLYGSTSQEVASVKQAFDAVGVK , reported PI (relative stability), 25% TIDE 2X with DTPA: 1.08

Memo: T278H: single-substitution thermolysin variant (SEQ ID NO:3 numbering) (protein, listed as Geobacillus caldoproteolyticus) ITGTSTVGVGRGVLGDQKNINTTYSTYYYLQDNTRGNGIFTYDAKYRTTLPGSLWADADNQFFASYDAPAVDAHYYAGVTYDYYKNVHNRLSYDGNNAAIRSSVHYSQGYNNAFWNGSQMVYGDGDGQTFIPLSGGIDVVAHELTHAVTDYTAGLIYQNESGAINEAISDIFGTLVEFYANKNPDWEIGEDVYTPGISGDSLRSMSDPAKYGDPDHYSKRYTGTQDNGGVHINSGIINKAAYLISQGGTHYGVSVVGIGRDKLGKIFYRALTQYLTPHSNFSQLRAAAVQSATDLYGSTSQEVASVKQAFDAVGVK , reported PI (relative stability), 25% TIDE 2X with DTPA: 1.07

Memo: N280S: single-substitution thermolysin variant (SEQ ID NO:3 numbering) (protein, listed as Geobacillus caldoproteolyticus) ITGTSTVGVGRGVLGDQKNINTTYSTYYYLQDNTRGNGIFTYDAKYRTTLPGSLWADADNQFFASYDAPAVDAHYYAGVTYDYYKNVHNRLSYDGNNAAIRSSVHYSQGYNNAFWNGSQMVYGDGDGQTFIPLSGGIDVVAHELTHAVTDYTAGLIYQNESGAINEAISDIFGTLVEFYANKNPDWEIGEDVYTPGISGDSLRSMSDPAKYGDPDHYSKRYTGTQDNGGVHINSGIINKAAYLISQGGTHYGVSVVGIGRDKLGKIFYRALTQYLTPTSSFSQLRAAAVQSATDLYGSTSQEVASVKQAFDAVGVK , reported PI (relative stability), 25% TIDE 2X with DTPA: 1.19

Memo: N280L: single-substitution thermolysin variant (SEQ ID NO:3 numbering) (protein, listed as Geobacillus caldoproteolyticus) ITGTSTVGVGRGVLGDQKNINTTYSTYYYLQDNTRGNGIFTYDAKYRTTLPGSLWADADNQFFASYDAPAVDAHYYAGVTYDYYKNVHNRLSYDGNNAAIRSSVHYSQGYNNAFWNGSQMVYGDGDGQTFIPLSGGIDVVAHELTHAVTDYTAGLIYQNESGAINEAISDIFGTLVEFYANKNPDWEIGEDVYTPGISGDSLRSMSDPAKYGDPDHYSKRYTGTQDNGGVHINSGIINKAAYLISQGGTHYGVSVVGIGRDKLGKIFYRALTQYLTPTSLFSQLRAAAVQSATDLYGSTSQEVASVKQAFDAVGVK , reported PI (relative stability), 25% TIDE 2X with DTPA: 1.21

Memo: T049L: single-substitution thermolysin variant (SEQ ID NO:3 numbering) (protein, listed as Geobacillus caldoproteolyticus) ITGTSTVGVGRGVLGDQKNINTTYSTYYYLQDNTRGNGIFTYDAKYRTLLPGSLWADADNQFFASYDAPAVDAHYYAGVTYDYYKNVHNRLSYDGNNAAIRSSVHYSQGYNNAFWNGSQMVYGDGDGQTFIPLSGGIDVVAHELTHAVTDYTAGLIYQNESGAINEAISDIFGTLVEFYANKNPDWEIGEDVYTPGISGDSLRSMSDPAKYGDPDHYSKRYTGTQDNGGVHINSGIINKAAYLISQGGTHYGVSVVGIGRDKLGKIFYRALTQYLTPTSNFSQLRAAAVQSATDLYGSTSQEVASVKQAFDAVGVK , reported PI (relative stability), 25% TIDE 2X with DTPA: 1.02

Memo: Y151A: single-substitution thermolysin variant (SEQ ID NO:3 numbering) (protein, listed as Geobacillus caldoproteolyticus) ITGTSTVGVGRGVLGDQKNINTTYSTYYYLQDNTRGNGIFTYDAKYRTTLPGSLWADADNQFFASYDAPAVDAHYYAGVTYDYYKNVHNRLSYDGNNAAIRSSVHYSQGYNNAFWNGSQMVYGDGDGQTFIPLSGGIDVVAHELTHAVTDATAGLIYQNESGAINEAISDIFGTLVEFYANKNPDWEIGEDVYTPGISGDSLRSMSDPAKYGDPDHYSKRYTGTQDNGGVHINSGIINKAAYLISQGGTHYGVSVVGIGRDKLGKIFYRALTQYLTPTSNFSQLRAAAVQSATDLYGSTSQEVASVKQAFDAVGVK , reported PI (relative stability), 25% TIDE 2X with DTPA: 1.15

Memo: Y151W: single-substitution thermolysin variant (SEQ ID NO:3 numbering) (protein, listed as Geobacillus caldoproteolyticus) ITGTSTVGVGRGVLGDQKNINTTYSTYYYLQDNTRGNGIFTYDAKYRTTLPGSLWADADNQFFASYDAPAVDAHYYAGVTYDYYKNVHNRLSYDGNNAAIRSSVHYSQGYNNAFWNGSQMVYGDGDGQTFIPLSGGIDVVAHELTHAVTDWTAGLIYQNESGAINEAISDIFGTLVEFYANKNPDWEIGEDVYTPGISGDSLRSMSDPAKYGDPDHYSKRYTGTQDNGGVHINSGIINKAAYLISQGGTHYGVSVVGIGRDKLGKIFYRALTQYLTPTSNFSQLRAAAVQSATDLYGSTSQEVASVKQAFDAVGVK , reported PI (relative stability), 25% TIDE 2X with DTPA: 1.02
